protocol: Cytotoxicity against mouse peritoneal macrophages after 24 hrs by MTT assay
Format: cell-based, Peritoneal macrophage cell

| molecule | CC50 at 24 h [µM] |
| --- | --- |
| Cl.N=C(NCC1CCCO1)c1ccc(N2CCN(c3nnc(-c4ccc([N+](=O)[O-])o4)s3)CC2)cc1 (stereo not drawn) | 921 |
| CCCCNC(=N)c1ccc(N2CCN(c3nnc(-c4ccc([N+](=O)[O-])o4)s3)CC2)cc1.Cl | 123 |
| CCNC(=N)c1ccc(N2CCN(c3nnc(-c4ccc([N+](=O)[O-])o4)s3)CC2)cc1.Cl | 337 |
